// data source = PubChem BioAssay (NCI)

# System: KM12 colon
# Assay info: NCI tumour cell line growth inhibition, 48 h
Readout name: TGI

Task: Please report the recorded TGI for NS(=O)(=O)c1ccc(NC(=S)/N=C/c2c(O)c3ccccc3oc2=O)cc1 .
Output: > 100 µM

Task: I would be grateful if you could share the reported TGI for C=CCN1C(=O)c2cccc3c(N4CCOCC4)ccc(c23)C1=O .
Output: 60.9 µM

Task: Returns the measured TGI for the input compound. Input: Cc1cc2c(O)c(c1)CN(Cc1ccccc1)Cc1cc(C)cc(c1O)CN(Cc1ccccc1)Cc1cc(C)cc(c1O)CN(Cc1ccccc1)C2
Output: > 100 µM

Task: Sample COc1ccccc1N1C(=O)CSC1c1c[nH]c2ccccc12 (stereo not given) — what was its TGI?
Output: > 100 µM

Task: What measured TGI goes with Nc1cccc2nnccc12 ?
Output: > 100 µM
